Target: human STING (HAQ) (Homo sapiens, UniProt Q86WV6, G230A/H232R/R293Q)
Sequence (Q86WV6 whole entry G230A/H232R/R293Q, looked up): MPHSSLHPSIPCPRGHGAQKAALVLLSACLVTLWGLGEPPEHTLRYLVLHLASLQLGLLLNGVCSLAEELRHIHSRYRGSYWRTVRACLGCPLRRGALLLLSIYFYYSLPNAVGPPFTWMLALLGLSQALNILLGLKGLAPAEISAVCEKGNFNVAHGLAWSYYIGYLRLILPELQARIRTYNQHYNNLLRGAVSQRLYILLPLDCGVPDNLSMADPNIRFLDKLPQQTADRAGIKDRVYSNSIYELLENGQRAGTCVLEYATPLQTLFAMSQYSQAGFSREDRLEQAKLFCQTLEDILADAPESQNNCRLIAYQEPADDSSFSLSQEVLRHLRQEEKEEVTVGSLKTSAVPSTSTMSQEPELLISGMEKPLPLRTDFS
Assay: Differential scanning fluorimetry (DSF), huSTING (HAQ)
Format: binding
Details: 2 μM protein, compound 100 μM; Tm with ligand minus Tm of protein alone (1% DMSO); read-out: DSF huSTING (HAQ) ΔTm (° C.)
Given measured ΔTm at 100 µM, output Criterion met if it is greater than or equal to 20 °C and Criterion not met if not.

query: Determine whether this compound has ΔTm at 100 µM no lower than 20 °C: "COc1ccc(-c2nc3c(OC)c(C(N)=O)ccc3n2CCn2c(-c3ccc(OC)cc3C(=O)O)nc3c(OC)c(C(N)=O)ccc32)c(C(=O)O)c1"
result: Criterion not met

query: Threshold query (ΔTm at 100 µM >= 20 °C) on "COc1c(C(N)=O)ccc2c1nc(-c1ccc(C#N)cc1C(=O)O)n2CCn1c(-c2ccc(C#N)cc2C(=O)O)nc2c(OC)c(C(N)=O)ccc21"
result: Criterion not met

query: Check if ΔTm at 100 µM >= 20 °C (inclusive). Item: "COc1c(C(N)=O)ccc2c1nc(-c1c(F)cc(Cl)cc1C(=O)O)n2CCn1c(-c2c(F)cc(Cl)cc2C(=O)O)nc2c(OC)c(C(N)=O)ccc21"
result: Criterion met

query: Say whether "COc1c(C(N)=O)ccc2c1nc(-c1c(F)cc(Cl)cc1-c1nn[nH]n1)n2CCn1c(-c2c(F)cc(Cl)cc2-c2nn[nH]n2)nc2c(OC)c(C(N)=O)ccc21" shows ΔTm at 100 µM of 20 °C or more.
result: Criterion met

query: State whether the measured ΔTm at 100 µM reaches 20 °C, counting equality as reaching it, for "COc1c(C(N)=O)ccc2c1nc(-c1c(C(=O)O)ccc(Cl)c1F)n2CCn1c(-c2c(C(=O)O)ccc(Cl)c2F)nc2c(OC)c(C(N)=O)ccc21"
result: Criterion met

query: API: above_or_equal(metric=ΔTm at 100 µM, cutoff=20 °C) for item "COc1c(C(N)=O)ccc2c1nc(-c1ccc(Cl)cc1-c1noc(=O)[nH]1)n2CCn1c(-c2ccc(Cl)cc2-c2noc(=O)[nH]2)nc2c(OC)c(C(N)=O)ccc21"
result: Criterion not met

query: Could you verify whether the entry "COc1c(C(N)=O)ccc2c1nc(-c1ccc(C)cc1C(=O)O)n2CCn1c(-c2ccc(C)cc2C(=O)O)nc2c(OC)c(C(N)=O)ccc21" shows ΔTm at 100 µM of no less than 20 °C?
result: Criterion not met

query: Is ΔTm at 100 µM at least 20 °C? Consider "COc1c(C(N)=O)cc(F)c2c1nc(-c1c(F)cc(F)cc1C(=O)O)n2CCn1c(-c2c(F)cc(F)cc2C(=O)O)nc2c(OC)c(C(N)=O)cc(F)c21"
result: Criterion not met

query: Determine whether measured ΔTm at 100 µM meets or exceeds 20 °C for "COc1c(C(N)=O)ccc2c1nc(-c1c(F)cc(F)cc1-c1n[nH]c(=O)o1)n2CCn1c(-c2c(F)cc(F)cc2-c2n[nH]c(=O)o2)nc2c(OC)c(C(N)=O)ccc21"
result: Criterion not met

query: Confirm if ΔTm at 100 µM reported for the compound "COc1c(C(N)=O)ccc2c1nc(-c1ccc(Cl)cc1C(=O)O)n2CCCn1c(-c2ccc(Cl)cc2C(=O)O)nc2c(OC)c(C(N)=O)ccc21" is 20 °C or above.
result: Criterion not met

query: Item "COc1c(C(N)=O)ccc2c1nc(-c1cc(Cl)ccc1-c1nn[nH]n1)n2CCn1c(-c2cc(Cl)ccc2-c2nn[nH]n2)nc2c(OC)c(C(N)=O)ccc21" with ΔTm at 100 µM of 20 °C or above?
result: Criterion not met
